self-cleavage for assorted variants
B1: HDV Ribozyme (parent)
chain: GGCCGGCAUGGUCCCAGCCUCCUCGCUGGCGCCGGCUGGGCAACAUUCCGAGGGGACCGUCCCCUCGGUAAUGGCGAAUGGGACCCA

- Variants of: B1
- experimental-details: self-cleavage, relative activity (ratio to wild type); higher = more cleavage; co-transcriptional

Completed entries (count: 4):
G10U U46C = 0.352
C13G U37G = 0
U12G U47G = 1.21
C30U G52A = 0.621

I would be grateful if you could share the reported self-cleavage for G40U C61U .
0.631

Moving on to A43G G55A
0.566

Moving on to G35A G53C
0.65
